# Test target: Aldose reductase (Oryctolagus cuniculus)
# Experimental details: Tested in vitro for inhibitory activity against partially purified aldose reductase from male rabbit lens
pIC50: −log10 of the molar value.
Metric name: pIC50

# example entries with known answers
{"columns": ["Compound", "pIC50"],
 "data": [
  ["Cc1cc2c(cc1Cl)C1(NC(=O)NC1=O)N(C)C(=O)N2 (centres undefined)", 7.52],
  ["CN1C(=O)Nc2cccc(Cl)c2C12NC(=O)NC2=O (centres undefined)", 6.07],
  ["CN1C(=O)Nc2cc(N3CCOCC3)c([N+](=O)[O-])cc2C12NC(=O)NC2=O (centres undefined)", 6.37],
  ["COc1ccc2c(c1)NC(=O)N(C)C21NC(=O)NC1=O (centres undefined)", 6.44],
  ["O=C1NC(=O)C2(N1)NC(=O)Nc1ccccc12 (centres undefined)", 5.85],
  ["CN1C(=O)Nc2ccc(Cl)cc2[C@]12NC(=O)NC2=O", 6.11],
  ["Cc1ccc2c(c1)NC(=O)N(C)C21NC(=O)NC1=O (centres undefined)", 6.66],
  ["NN1C(=O)Nc2ccccc2C12NC(=O)NC2=O (centres undefined)", 5.40],
  ["CN1C(=O)Nc2ccc(Cl)cc2[C@@]12NC(=O)NC2=O", 7.66],
  ["CN1C(=O)Nc2cc(Cl)c(Cl)cc2C12NC(=O)NC2=O (centres undefined)", 7.13]
]}

[A] CN1C(=O)Nc2ccc(OC(=O)c3ccccc3)cc2C12NC(=O)NC2=O (centres undefined)
[B] Cc1cccc2c1C1(NC(=O)NC1=O)N(C)C(=O)N2 (centres undefined)
QUERY: Of the pair A and B , name the member with the lesser recorded pIC50. Pick one; state its label.
RESULT: A

[P] CCN1C(=O)Nc2ccccc2C12NC(=O)NC2=O (centres undefined)
[Q] CN1C(=O)Nc2ccc([N+](=O)[O-])cc2C12NC(=O)NC2=O (centres undefined)
QUERY: Pick one, P or Q : lowest reported pIC50. Which one? Tell me its label.
RESULT: P
